experiment: Isoelectric point, log D and log P (SiriusT3); format: physicochemical; settings: pH 7.4, pH 7.4, octanol/ISA water; read-out: Log D (7.4)
Residues, ends and D or L forms follow the SMILES beside them.
Note to self: values exactly at -2 are Y. So logD at or above -2 is Y, below is N.

Some solved cases for reference:
compound	category
CC[C@H](C)[C@H](NC(C)=O)C(=O)N[C@@H](CCSC)C(=O)N[C@H](C(=O)N[C@H](C(=O)N[C@H](C(=O)N1CCC[C@H]1C(=O)N[C@@H](C)C(=O)N[C@@H](CC(=O)O)C(=O)N[C@@H](CC(C)C)C(=O)N[C@@H](Cc1c[nH]c2ccccc12)C(=O)N[C@@H](CC(=O)O)C(=O)N[C@@H](Cc1c[nH]c2ccccc12)C(=O)N[C@H](C(=O)N[C@@H](CC(N)=O)C(=O)N[C@@H](CCCCN)C(N)=O)[C@@H](C)CC)[C@@H](C)CC)[C@@H](C)O)C(C)C [SEQ ID NO: 3] (Ac-IMVTIPADLWDWINK-NH2)	Y
CC[C@H](C)[C@H](NC(=O)[C@@H](NC(=O)[C@@H](NC(=O)[C@H](Cc1c[nH]cn1)NC(=O)[C@@H](NC(C)=O)C(C)C)C(C)C)[C@@H](C)O)C(=O)N1CCC[C@H]1C(=O)N[C@@H](C)C(=O)N[C@@H](CCC(=O)O)C(=O)N[C@@H](CC(C)C)C(=O)N[C@@H](Cc1c[nH]c2ccccc12)C(=O)N[C@@H](CCC(=O)O)C(=O)N[C@@H](Cc1c[nH]c2ccccc12)C(=O)N[C@H](C(=O)N[C@@H](CCCNC(=N)N)C(=O)N[C@@H](CCCNC(=N)N)C(N)=O)C(C)C [SEQ ID NO: 111] (Ac-VHVTIPAELWEWVRR-NH2)	Y
CC[C@H](C)[C@H](NC(=O)[C@H](CCC(N)=O)NC(=O)[C@@H](NC(=O)[C@H](Cc1c[nH]cn1)NC(=O)[C@@H](NC(C)=O)C(C)C)C(C)C)C(=O)N1CCC[C@H]1C(=O)N[C@@H](C)C(=O)N[C@@H](CC(=O)O)C(=O)N[C@@H](CC(C)C)C(=O)N[C@@H](Cc1c[nH]c2ccccc12)C(=O)N[C@@H](CCC(=O)O)C(=O)N[C@@H](Cc1c[nH]c2ccccc12)C(=O)N[C@H](C(=O)N[C@@H](CCCNC(=N)N)C(=O)N[C@@H](CCCNC(=N)N)C(N)=O)C(C)C [SEQ ID NO: 113] (Ac-VHVQIPADLWEWVRR-NH2)	N
CC[C@H](C)[C@H](NC(=O)[C@@H](NC(=O)[C@@H](NC(=O)[C@H](Cc1c[nH]cn1)NC(=O)[C@@H](NC(C)=O)C(C)C)C(C)C)[C@@H](C)O)C(=O)N1CCC[C@H]1C(=O)N[C@@H](CCC(N)=O)C(=O)N[C@@H](CC(=O)O)C(=O)N[C@@H](CC(C)C)C(=O)N[C@@H](Cc1c[nH]c2ccccc12)C(=O)N[C@@H](CCC(=O)O)C(=O)N[C@@H](Cc1c[nH]c2ccccc12)C(=O)N[C@H](C(=O)N[C@@H](CCCNC(=N)N)C(=O)N[C@@H](CCCNC(=N)N)C(N)=O)C(C)C [SEQ ID NO: 115] (Ac-VHVTIPQDLWEWVRR-NH2)	N

Inquiry: Check this compound for logD at or above -2: CC[C@H](C)[C@H](NC(=O)[C@H](Cc1c[nH]c2ccccc12)NC(=O)[C@H](CC(=O)O)NC(=O)[C@H](Cc1c[nH]c2ccccc12)NC(=O)[C@H](CC(C)C)NC(=O)[C@H](CC(=O)O)NC(=O)[C@H](C)NC(=O)[C@@H]1CCCN1C(=O)[C@@H](NC(=O)[C@@H](NC(=O)[C@@H](NC(=O)[C@H](Cc1c[nH]cn1)NC(=O)[C@@H](NC(C)=O)C(C)C)C(C)C)[C@@H](C)O)[C@@H](C)CC)C(=O)N[C@@H](CC(N)=O)C(=O)N[C@@H](CCCCN)C(N)=O [SEQ ID NO: 2] (Ac-VHVTIPADLWDWINK-NH2)
Reply text: Y
